Values compiled from paper PMC3585228.

experimental_target: T1, CCR7 on CHO-K1 cells (human, UniProt P32248 25-378)
T1 construct: chemokine receptor CCR7; source: CHO-K1, stably expressing, alone or co-expressed with ChemR23 (clone 26); membrane preparations or cells
T1 sequence (looked up): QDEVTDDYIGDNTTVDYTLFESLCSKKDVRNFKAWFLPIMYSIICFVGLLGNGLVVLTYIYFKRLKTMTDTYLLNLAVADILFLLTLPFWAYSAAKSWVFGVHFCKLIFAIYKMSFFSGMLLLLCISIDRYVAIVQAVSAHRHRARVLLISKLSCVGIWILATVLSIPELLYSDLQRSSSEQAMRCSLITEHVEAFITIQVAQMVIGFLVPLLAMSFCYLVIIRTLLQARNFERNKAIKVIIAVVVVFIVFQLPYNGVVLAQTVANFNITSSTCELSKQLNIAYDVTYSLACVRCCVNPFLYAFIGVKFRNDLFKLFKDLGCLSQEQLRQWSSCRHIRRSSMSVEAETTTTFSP
assay_protocol: radioligand binding; competition on CHO-K1 cells expressing CCR7 only (methods: membrane preparations); tracer 0.1 nM 125I-CCL19; 50 mM Hepes pH 7.4, 1 mM CaCl2, 5 mM MgCl2, 0.5% BSA; one hour; filtration
applied_conditions: one partner purified
pIC50: −log10 of the molar value.
property_label: pIC50

binder="CCL19 (unlabelled) (ligand, UniProt Q99731 22-98, looked up, chemokine CCL19, the CCR7-specific ligand) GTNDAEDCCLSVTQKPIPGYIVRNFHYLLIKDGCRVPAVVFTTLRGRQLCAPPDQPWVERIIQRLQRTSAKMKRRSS" property_label=pIC50 result_number=8.62
